meta.source: patent US9266922B2

For each of the molecules below, state its iScore.
- target: HLA-A*0201 (Homo sapiens, UniProt P04439, D140Y/D185E/D98H/E176V/E277Q/G131W/G231S/I119V/I121R/I166T/I218V/L300P/L318F/N151K/N90K/P208A/P217A/Q86G/Q94H/R138H/R169H/T345S)
- protocol.description: iScore calculation (iTOPIA system software)
- applied.conditions: multiparametric score of binding, off-rate and affinity
Residues, ends and D or L forms follow the SMILES beside them.

INPUT: Dear colleague, please send me the reported iScore for CC(C)C[C@H](NC(=O)[C@H](CCCNC(=N)N)NC(=O)[C@H](C)NC(=O)[C@H](CCC(N)=O)NC(=O)[C@@H](N)Cc1ccccc1)C(=O)N[C@@H](CCCNC(=N)N)C(=O)N[C@@H](CC(C)C)C(=O)N[C@@H](CCCNC(=N)N)C(=O)N[C@H](C(=O)O)C(C)C [Peptide 137] (H-FQARLRLRV-OH; N-terminus and C-terminus assumed) when you can.
OUTPUT: 0.66

INPUT: Dear colleague, please send me the reported iScore for CC(C)C[C@H](NC(=O)[C@H](C)NC(=O)[C@H](C)N)C(=O)N[C@@H](CC(C)C)C(=O)N[C@@H](Cc1ccccc1)C(=O)N[C@@H](CS)C(=O)N[C@@H](CC(C)C)C(=O)N[C@@H](CC(C)C)C(=O)N[C@H](C(=O)O)C(C)C [Peptide 357] (H-AALLFCLLV-OH; N-terminus and C-terminus assumed) when you can.
OUTPUT: 0.619

INPUT: Dear colleague, please send me the reported iScore for CC(C)C[C@H](NC(=O)[C@@H](N)CC(C)C)C(=O)N[C@@H](C)C(=O)N[C@@H](CO)C(=O)N[C@@H](Cc1ccccc1)C(=O)N[C@H](C(=O)NCC(=O)N[C@@H](CCCNC(=N)N)C(=O)N[C@@H](CS)C(=O)O)[C@@H](C)O [Peptide 21] (H-LLASFTGRC-OH; N-terminus and C-terminus assumed) when you can.
OUTPUT: 0.727

INPUT: Dear colleague, please send me the reported iScore for CSCC[C@H](NC(=O)[C@@H](N)CO)C(=O)N[C@@H](CC(N)=O)C(=O)NCC(=O)N[C@@H](CCC(N)=O)C(=O)N1CCC[C@H]1C(=O)N[C@@H](CC(C)C)C(=O)N[C@H](C(=O)N[C@@H](CS)C(=O)O)[C@@H](C)O [Peptide 215] (H-SMNGQPLTC-OH; N-terminus and C-terminus assumed) when you can.
OUTPUT: 0.689

INPUT: Dear colleague, please send me the reported iScore for CC(C)C[C@H](NC(=O)[C@@H](NC(=O)[C@H](CO)NC(=O)[C@H](Cc1ccc(O)cc1)NC(=O)[C@H](CO)NC(=O)[C@@H](N)CCCNC(=N)N)[C@@H](C)O)C(=O)N[C@H](C(=O)N[C@H](C(=O)N[C@H](C(=O)O)C(C)C)[C@@H](C)O)[C@@H](C)O [Peptide 443] (H-RSYSTLTTV-OH; N-terminus and C-terminus assumed) when you can.
OUTPUT: 0.521

INPUT: Dear colleague, please send me the reported iScore for CC[C@H](C)[C@H](NC(=O)[C@@H](N)C(C)C)C(=O)N[C@@H](C)C(=O)N[C@@H](C)C(=O)N[C@@H](CC(C)C)C(=O)N[C@@H](CC(C)C)C(=O)N[C@@H](Cc1ccccc1)C(=O)N[C@@H](CS)C(=O)N[C@@H](CC(C)C)C(=O)O [Peptide 355] (H-VIAALLFCL-OH; N-terminus and C-terminus assumed) when you can.
OUTPUT: 0.888

INPUT: Dear colleague, please send me the reported iScore for CSCC[C@H](NC(=O)[C@H](C)N)C(=O)N[C@@H](CC(C)C)C(=O)N[C@@H](CCCCN)C(=O)N[C@@H](CS)C(=O)N[C@@H](CC(C)C)C(=O)N[C@@H](CO)C(=O)N[C@@H](CCC(=O)O)C(=O)NCC(=O)O [Peptide 266] (H-AMLKCLSEG-OH; N-terminus and C-terminus assumed) when you can.
OUTPUT: 0.667

INPUT: Dear colleague, please send me the reported iScore for CC(C)C[C@H](NC(=O)[C@H](CC(C)C)NC(=O)[C@H](CC(C)C)NC(=O)[C@@H](N)CC(C)C)C(=O)N[C@@H](C)C(=O)N[C@@H](CO)C(=O)N[C@@H](Cc1ccccc1)C(=O)N[C@H](C(=O)NCC(=O)O)[C@@H](C)O [Peptide 19] (H-LLLLASFTG-OH; N-terminus and C-terminus assumed) when you can.
OUTPUT: 0.659

INPUT: Dear colleague, please send me the reported iScore for CC(C)C[C@H](NC(=O)CNC(=O)[C@H](Cc1ccc(O)cc1)NC(=O)[C@H](CCCCN)NC(=O)[C@H](CO)NC(=O)[C@H](Cc1c[nH]cn1)NC(=O)[C@H](CC(C)C)NC(=O)[C@H](CC(C)C)NC(=O)[C@H](C)N)C(=O)O [Peptide 80] (H-ALLHSKYGL-OH; N-terminus and C-terminus assumed) when you can.
OUTPUT: 0.815

INPUT: Dear colleague, please send me the reported iScore for CC(C)C[C@H](NC(=O)[C@H](C)N)C(=O)N[C@@H](CC(C)C)C(=O)N[C@@H](Cc1ccccc1)C(=O)N[C@@H](CS)C(=O)N[C@@H](CC(C)C)C(=O)N[C@@H](CC(C)C)C(=O)N[C@H](C(=O)N[C@H](C(=O)O)C(C)C)C(C)C [Peptide 358] (H-ALLFCLLVV-OH; N-terminus and C-terminus assumed) when you can.
OUTPUT: 0.71

INPUT: Dear colleague, please send me the reported iScore for CC(C)C[C@H](NC(=O)[C@H](CO)NC(=O)[C@@H]1CCCN1C(=O)[C@H](CC(C)C)NC(=O)[C@@H]1CCCN1C(=O)[C@@H]1CCCN1C(=O)[C@@H](NC(=O)[C@H](CC(C)C)NC(=O)[C@@H](N)C(C)C)C(C)C)C(=O)O [Peptide 145] (H-VLVPPLPSL-OH; N-terminus and C-terminus assumed) when you can.
OUTPUT: 0.783

INPUT: Dear colleague, please send me the reported iScore for CC[C@H](C)[C@H](NC(=O)[C@@H](NC(=O)CNC(=O)[C@@H](NC(=O)[C@@H](NC(=O)[C@@H](N)C(C)C)C(C)C)C(C)C)C(C)C)C(=O)N[C@@H](C)C(=O)N[C@@H](C)C(=O)N[C@@H](CC(C)C)C(=O)O [Peptide 351, VVVGVIAAL] (H-VVVGVIAAL-OH; N-terminus and C-terminus assumed) when you can.
OUTPUT: 0.784

INPUT: Dear colleague, please send me the reported iScore for CC(C)C[C@H](NC(=O)[C@@H](N)Cc1ccccc1)C(=O)N[C@@H](C)C(=O)N[C@@H](CCC(=O)O)C(=O)N[C@@H](C)C(=O)N[C@@H](CO)C(=O)N[C@H](C(=O)N[C@@H](CCCNC(=N)N)C(=O)NCC(=O)O)C(C)C [Peptide 244] (H-FLAEASVRG-OH; N-terminus and C-terminus assumed) when you can.
OUTPUT: 0.533

INPUT: Dear colleague, please send me the reported iScore for CC(C)[C@H](NC(=O)CNC(=O)[C@@H](NC(=O)[C@@H](NC(=O)[C@@H](NC(=O)[C@@H](NC(=O)[C@H](CO)NC(=O)[C@H](C)NC(=O)[C@@H](N)CO)C(C)C)C(C)C)C(C)C)C(C)C)C(=O)O [Peptide 347] (H-SASVVVVGV-OH; N-terminus and C-terminus assumed) when you can.
OUTPUT: 0.708
